- target of assay: Coagulation factor XII (Homo sapiens, UniProt P00748)
- Sequence (P00748 whole entry): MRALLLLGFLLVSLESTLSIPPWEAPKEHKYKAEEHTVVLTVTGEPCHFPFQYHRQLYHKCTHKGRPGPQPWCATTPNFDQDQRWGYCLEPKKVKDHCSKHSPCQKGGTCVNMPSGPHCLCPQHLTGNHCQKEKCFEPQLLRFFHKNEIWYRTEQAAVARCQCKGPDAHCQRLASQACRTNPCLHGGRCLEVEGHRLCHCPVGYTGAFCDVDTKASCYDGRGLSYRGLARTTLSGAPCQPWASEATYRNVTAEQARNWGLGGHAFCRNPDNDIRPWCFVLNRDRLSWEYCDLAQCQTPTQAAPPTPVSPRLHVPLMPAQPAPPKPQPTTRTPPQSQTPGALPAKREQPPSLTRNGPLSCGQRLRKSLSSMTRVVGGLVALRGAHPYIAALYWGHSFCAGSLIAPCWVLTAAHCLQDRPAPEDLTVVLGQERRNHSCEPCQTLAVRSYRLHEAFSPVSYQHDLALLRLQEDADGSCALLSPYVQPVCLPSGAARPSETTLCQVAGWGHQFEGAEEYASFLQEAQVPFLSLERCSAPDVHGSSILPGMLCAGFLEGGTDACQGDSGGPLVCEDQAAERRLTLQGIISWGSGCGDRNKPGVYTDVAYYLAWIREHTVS
- test description: Inhibition of human factor 12a using H-D-Pro-Phe-Arg-pNa as substrate by spectrophotometric method
metric name: Ki (nM)

N=C(N)NCCC[C@H](NC(=O)[C@@H]1CCCN1C(=O)[C@H](N)Cc1ccccc1)C(=O)CCl; 230

###

- test description: Inhibition of bovine trypsin using BAEE as substrate by Lineweaver-Burk analysis
- Set-up: species or system Bos taurus
pKi: −log10 of the molar value.
metric name: pKi

CCCCCCOC(=O)CCCCCN; 4.23

###

- test description: Inhibition of bovine trypsin using chromogenic substrate by Lineweaver-Burk analysis
- Design: species or system Bos taurus
pKi: −log10 of the molar value.
metric name: pKi

N=C(N)Nc1ccc(C(=O)Oc2ccc3cc(C(=N)N)ccc3c2)cc1 [NAFAMOSTAT]; 7.80
CCOC(=O)c1ccc(OC(=O)CCCCCNC(=N)N)cc1 [GABEXATE]; 7.14

###

- target of assay: Coagulation factor XII (Homo sapiens)
- test description: Inhibition of factor 12a (unknown origin)
pIC50: −log10 of the molar value.
metric name: pIC50

Cc1ccc2oc(=O)c(C(=O)Nc3ccc(N)cc3)cc2c1; 4.85

###

- target of assay: Coagulation factor XII (Homo sapiens)
- test description: Inhibition of human factor 12a using chromogenic substrate by Lineweaver-Burk analysis
pKi: −log10 of the molar value.
Some compounds, each annotated with its measured pKi.
metric name: pKi

N=C(N)Nc1ccc(C(=O)Oc2ccc3cc(C(=N)N)ccc3c2)cc1; 6.98
CCOC(=O)c1ccc(OC(=O)CCCCCNC(=N)N)cc1 [GABEXATE]; 5.53
